# system-under-test: human PDE2A1 (Homo sapiens (Human), UniProt O00408)
# Sequence (O00408 other isoform, or with tags, fused parts or gaps): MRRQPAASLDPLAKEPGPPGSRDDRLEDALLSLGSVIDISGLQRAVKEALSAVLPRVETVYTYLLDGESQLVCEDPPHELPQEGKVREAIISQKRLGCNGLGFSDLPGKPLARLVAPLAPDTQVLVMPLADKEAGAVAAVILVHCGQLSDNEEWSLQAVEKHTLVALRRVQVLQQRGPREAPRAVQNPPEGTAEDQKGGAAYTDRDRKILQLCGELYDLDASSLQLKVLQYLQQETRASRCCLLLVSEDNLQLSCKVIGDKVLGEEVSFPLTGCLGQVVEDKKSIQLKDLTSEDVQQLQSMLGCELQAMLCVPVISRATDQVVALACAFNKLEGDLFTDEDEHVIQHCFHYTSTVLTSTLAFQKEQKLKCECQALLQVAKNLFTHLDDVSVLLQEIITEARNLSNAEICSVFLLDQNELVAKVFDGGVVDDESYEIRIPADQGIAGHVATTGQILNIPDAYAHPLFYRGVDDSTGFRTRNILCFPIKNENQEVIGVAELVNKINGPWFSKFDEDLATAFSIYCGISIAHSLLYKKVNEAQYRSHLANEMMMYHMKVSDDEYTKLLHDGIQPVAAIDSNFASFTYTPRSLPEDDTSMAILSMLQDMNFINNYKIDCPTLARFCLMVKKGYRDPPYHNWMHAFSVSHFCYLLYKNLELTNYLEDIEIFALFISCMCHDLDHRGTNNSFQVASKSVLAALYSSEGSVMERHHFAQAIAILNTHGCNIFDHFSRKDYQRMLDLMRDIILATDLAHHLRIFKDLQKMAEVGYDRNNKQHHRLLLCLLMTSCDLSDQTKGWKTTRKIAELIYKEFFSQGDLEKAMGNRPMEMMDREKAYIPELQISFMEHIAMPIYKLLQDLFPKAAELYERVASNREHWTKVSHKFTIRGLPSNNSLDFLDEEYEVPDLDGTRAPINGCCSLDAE
# protocol-summary: IMAP FP PDE selectivity panel, human PDE2A1
# Type: biochemical
# assay-context: Human PDE2, Lab B; read-out: Human PDE2 Ki (nM) - Lab B
measured-endpoint: Ki (nM)

P: COc1ccc(Cc2nc(C(=O)N[C@@H](c3ccc(SC(F)(F)F)cc3)C(C)C)cc(=O)[nH]2)cc1F
Q: O=C(NC1(c2ccc(SC(F)(F)F)cc2)CC1)c1cc(=O)[nH]c(-c2ncccn2)n1
R: Cc1cc(C(F)(F)F)ccc1C(C)(C)NC(=O)c1cc(=O)[nH]c(-c2ncccn2)n1
S: CC(NC(=O)c1cc(=O)[nH]c(-c2ncccn2)n1)c1ccc(C2(C(F)(F)F)CC2)cc1 (single isomer, unassigned) [Example 693]
Using the list above, order everything by rising Ki. Reply with the item labels sorted in the order that was asked for. P, Q, S, R
